Data provenance is PubChem BioAssay AID651815.

biological target: DNA dC->dU-editing enzyme APOBEC-3F (Homo sapiens) (UniProt Q8IUX4); assay: qHTS for inhibitors of Vif-A3F interactions: Cherry picks counterscreen; settings: HeLa A3F-eYFP/Vif cells, eYFP fluorescence, 24 h; series mostly up to 46.1 µM; note: nearly all actives have a fitted effect of over 65% in size
Sequence (Q8IUX4 whole entry, looked up): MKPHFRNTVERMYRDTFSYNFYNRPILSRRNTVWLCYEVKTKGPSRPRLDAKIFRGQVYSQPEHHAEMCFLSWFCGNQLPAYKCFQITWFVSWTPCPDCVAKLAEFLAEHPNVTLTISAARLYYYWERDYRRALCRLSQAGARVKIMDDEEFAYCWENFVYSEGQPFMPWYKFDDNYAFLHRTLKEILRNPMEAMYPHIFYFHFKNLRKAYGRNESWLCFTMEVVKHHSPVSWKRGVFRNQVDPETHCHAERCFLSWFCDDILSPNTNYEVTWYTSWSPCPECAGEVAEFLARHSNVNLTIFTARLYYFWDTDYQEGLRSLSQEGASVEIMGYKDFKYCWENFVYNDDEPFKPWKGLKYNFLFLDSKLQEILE
About 1,100 (52%) of roughly 2,100 compounds were called active. Inconclusive results (about 29%) are left out. Calls come from the whole dose curve; as a rule, active = well fitted inhibition curve with a large enough effect; inconclusive = small, poorly fitted or top-dose-only effect; inactive = no such curve, though single readings can be large or run the other way. So high a share suggests a set chosen from earlier hits. Some of the results follow.
Classes to choose from: active, inactive

Q. Which outcome was entered for the compound N#CCSc1ccccc1NC(=O)CN1C(=O)NC(CCc2ccccc2)C1=O (stereo not drawn) in this test?
A. inactive

Q. Which outcome was entered for the compound O=C(c1ccc(CS(=O)c2ccccc2Cl)o1)N1CCN(c2ccccc2F)CC1 (stereo not drawn) in this test?
A. active

Q. Which outcome was entered for the compound COc1ccc(Cn2c(C)nc3c(c2=O)c2nc4ccccc4nc2n3Cc2ccco2)cc1 in this test?
A. active
